# system tested: IFN-α 2b (Homo sapiens, UniProt P01563)
# Construct: purchased Sigma-Aldrich SRP4595; host or cells: E. coli
# test name: Microscale thermophoresis (MST) binding affinity of FILs with labelled IFN-α 2b
# condition notes: assay 375 − 1.1 × 10^−2 mM FIL; labelled IFN-α 2b 2.7 μM; 5 mM NaH2PO4 pH 7.4; 25 °C; ± = Kd confidence of the fitting
endpoint: Kd (mM)
Give the number; mM is assumed, so skip it.

Which Kd value belongs to O=S(=O)(O)C(F)(F)C(F)(F)C(F)(F)C(F)(F)F [[N1112(OH)][C4F9SO3]] ? 54.7
